- System: HepG2
- ASSAY: Antiproliferative activity against human HepG2 cells expressing VEGFR2 assessed as cell growth inhibition measured after 48 hrs by MTT assay
- Format: functional, cell-based
- MEASUREMENT PARAMETERS: HepG2, 48 h
ATTRIBUTE MEASURED: IC50 (µM)

Field: example entries. Status: answers known.
{"columns": ["RECORD SMILES", "ATTRIBUTE MEASURED", "TEST VALUE"],
 "data": [
  ["O=C(Nc1ccc(Nc2ccc([N+](=O)[O-])c3ncnc(O)c23)cc1)c1ccccc1", "IC50", 7.41],
  ["O=C(Nc1ccc(Nc2ccc([N+](=O)[O-])c3ncnc(O)c23)cc1)c1ccc(Cl)cc1", "IC50", 0.9],
  ["Cc1ccc(C(=O)Nc2ccc(CN3CCN(C)CC3)c(C(F)(F)F)c2)cc1C#Cc1cnc2cccnn12", "IC50", 0.6],
  ["O=C(Nc1ccc(Nc2ccc([N+](=O)[O-])c3ncnc(O)c23)cc1)c1ccc(F)cc1", "IC50", 0.2],
  ["O=C(Nc1cccc(Nc2ccc([N+](=O)[O-])c3ncnc(O)c23)c1)c1cccc(Cl)c1", "IC50", 93]
]}

I: O=C(Nc1ccc(Nc2ccc([N+](=O)[O-])c3ncnc(O)c23)cc1)c1ccccc1Cl
II: CNC(=O)c1cc(Oc2ccc(NC(=O)Nc3ccc(Cl)c(C(F)(F)F)c3)cc2)ccn1
III: O=C(Nc1cccc(Nc2ccc([N+](=O)[O-])c3ncnc(O)c23)c1)c1ccc(Cl)cc1
Asked: Arrange these molecules by their IC50, starting with the largest number. In plain terms: list the labels in the order you were asked to.
Given back: III, I, II
(III: 76.3 µM, I: 28 µM, II: 3.6 µM)

I: O=C(Nc1ccc(Nc2ccc([N+](=O)[O-])c3ncnc(O)c23)cc1)c1cccc(Cl)c1
II: O=C(Nc1cccc(Nc2ccc([N+](=O)[O-])c3ncnc(O)c23)c1)c1ccccc1F
Asked: Of the pair I and II , name the member with the lesser recorded IC50. Select an item and report its label.
Given back: I
(I: 42 µM, II: 69.6 µM)

P: O=C(Nc1ccc(Nc2ccc([N+](=O)[O-])c3ncnc(O)c23)cc1)c1cccc(F)c1
Q: COc1ccccc1C(=O)Nc1cccc(Nc2ccc([N+](=O)[O-])c3ncnc(O)c23)c1
Asked: // max by IC50 over [ P , Q ] Select an item and report its label.
Given back: Q

I: COc1ccccc1C(=O)Nc1ccc(Nc2ccc([N+](=O)[O-])c3ncnc(O)c23)cc1
II: Cc1ccccc1C(=O)Nc1cccc(Nc2ccc([N+](=O)[O-])c3ncnc(O)c23)c1
Asked: // max by IC50 over [ I , II ] Select an item and report its label.
Given back: II

I: O=C(Nc1cccc(Nc2ccc([N+](=O)[O-])c3ncnc(O)c23)c1)c1ccccc1Cl
II: Cc1ccccc1C(=O)Nc1ccc(Nc2ccc([N+](=O)[O-])c3ncnc(O)c23)cc1
Asked: Of the pair I and II , name the member with the lesser recorded IC50. Select an item and report its label.
Given back: II
(II: 30.1 µM, I: 71.9 µM)

a: COc1cccc(C(=O)Nc2ccc(Nc3ccc([N+](=O)[O-])c4ncnc(O)c34)cc2)c1
b: Cc1cccc(C(=O)Nc2ccc(Nc3ccc([N+](=O)[O-])c4ncnc(O)c34)cc2)c1
Asked: // max by IC50 over [ a , b ] Select an item and report its label.
Given back: a
(a: 64.2 µM, b: 40.8 µM)

All values here come from ChEMBL document CHEMBL4406886.
